subject.of.test: T1, biotinylated cynomolgus CD203c (bio-cyCD203c, Icosagen) (cynomolgus monkey, UniProt A0A2K5TKP4 31-874, biotinylated (site not stated))
T1 construct: Captured on a Biotin CAPture chip for SPR; also called cyno CD203c
T1 sequence: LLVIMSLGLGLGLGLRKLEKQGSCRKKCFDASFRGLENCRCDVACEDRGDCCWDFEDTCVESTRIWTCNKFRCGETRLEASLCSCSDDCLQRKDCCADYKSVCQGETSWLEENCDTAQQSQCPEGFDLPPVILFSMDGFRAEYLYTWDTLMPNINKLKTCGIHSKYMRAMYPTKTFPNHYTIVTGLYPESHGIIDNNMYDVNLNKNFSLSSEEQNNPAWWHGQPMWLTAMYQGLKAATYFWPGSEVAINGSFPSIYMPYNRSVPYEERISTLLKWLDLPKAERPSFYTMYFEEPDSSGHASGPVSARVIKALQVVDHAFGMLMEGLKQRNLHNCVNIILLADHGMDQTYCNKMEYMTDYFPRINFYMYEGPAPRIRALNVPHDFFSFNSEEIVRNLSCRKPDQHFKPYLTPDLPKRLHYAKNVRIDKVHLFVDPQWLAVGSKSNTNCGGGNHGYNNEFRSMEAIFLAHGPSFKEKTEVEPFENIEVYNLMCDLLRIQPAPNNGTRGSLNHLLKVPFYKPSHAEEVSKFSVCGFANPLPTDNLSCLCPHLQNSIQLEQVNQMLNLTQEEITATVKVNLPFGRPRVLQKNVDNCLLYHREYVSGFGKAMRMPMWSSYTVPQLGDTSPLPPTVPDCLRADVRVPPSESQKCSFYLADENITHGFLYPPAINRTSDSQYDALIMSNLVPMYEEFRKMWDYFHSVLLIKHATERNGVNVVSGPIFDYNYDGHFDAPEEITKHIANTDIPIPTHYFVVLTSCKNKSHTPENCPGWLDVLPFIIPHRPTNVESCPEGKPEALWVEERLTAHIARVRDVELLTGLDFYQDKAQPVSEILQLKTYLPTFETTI
procedure.text: SPR, single-cycle protocol, Bio-cyCD203c; table gives Rmax, Chi2 and KD only
assay.metric: pKd
Value format note: pKd is -log10 of concentration (mol/L); just state the number.

Query block: Return reported pKd. Input binder: FJ2156_MH1_A x F6_12C huIgG1 KIH (bispecific antibody, V domains shown, also called MH1_A/F6.12_C) VH 1: EVQLVQSGAEVKKPGASVKVSCKASGYTFTDYYMNWVRQAPGQGLEWMGRIYPGSGNTYYAQKFQDRVTMTRDTSTSTVYMELSSLRSEDTAVYYCARGVYYYDYWGQGTLVTVSS VH 2: QVQLVQSGAEVKKPGESLKISCKGSGYRFASNWIGWVRQMPGKGLEWMGEIYPGDSNTRYRPSFQGQVTISADKSISTAYLQWSSLKASDTAMYYCARKDYYYGIMDVWGQGTTVTVSS VL: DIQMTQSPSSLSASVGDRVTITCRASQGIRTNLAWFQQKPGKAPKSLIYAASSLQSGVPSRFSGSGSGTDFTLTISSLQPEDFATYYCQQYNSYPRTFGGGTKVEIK
Result block: 7.29

Query block: # return recorded pKd for input FJ2156_MH1_C x F6_12B huIgG1 KIH (bispecific antibody, V domains shown, also called MH1_C/F6.12_B) VH 1: QVQLVQSGAEVKEPGASVKVSCKASGYTFTDYYMNWVRQAPGQGLEWMGRIYPGSGNTYYAQNFQGRVTMTRDTSTSTVYMELSSLRSEDTAVYYCARGVYYYDYWGQGTLVTVSS VH 2: QVQLVQSGAEVKKPGESLKISCKGSGYRFASNWIGWVRQMPGKGLQWMGEIYPGDSNTRYSPSFQGQVTISADKSISTAYLQWSSLKASDTAMYYCARKDYYYGIMDVWGQGTTVTVSS VL: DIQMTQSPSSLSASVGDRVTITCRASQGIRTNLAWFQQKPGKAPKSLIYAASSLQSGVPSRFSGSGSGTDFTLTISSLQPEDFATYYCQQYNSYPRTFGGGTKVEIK
Result block: 7.12

Query block: For the binder FJ2156_MH1_A x F6_12B huIgG1 KIH (bispecific antibody, V domains shown, also called MH1_A/F6.12_B) VH 1: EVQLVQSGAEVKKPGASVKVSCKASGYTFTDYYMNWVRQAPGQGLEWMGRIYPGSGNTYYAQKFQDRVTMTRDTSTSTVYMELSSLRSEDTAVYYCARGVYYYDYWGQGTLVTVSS VH 2: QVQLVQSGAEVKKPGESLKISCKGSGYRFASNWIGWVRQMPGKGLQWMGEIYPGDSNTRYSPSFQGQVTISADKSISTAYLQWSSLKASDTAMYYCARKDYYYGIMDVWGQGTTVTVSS VL: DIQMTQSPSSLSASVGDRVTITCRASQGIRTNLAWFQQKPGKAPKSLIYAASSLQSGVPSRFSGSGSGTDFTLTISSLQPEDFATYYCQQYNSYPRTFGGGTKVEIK , give its measured pKd value.
Result block: 7.17
